# targetEntity: T1, hFc-hFasL (fusion protein of human Fc fragment and human FasL extracellular region) (human, UniProt P48023 134-281)
# T1 sequence: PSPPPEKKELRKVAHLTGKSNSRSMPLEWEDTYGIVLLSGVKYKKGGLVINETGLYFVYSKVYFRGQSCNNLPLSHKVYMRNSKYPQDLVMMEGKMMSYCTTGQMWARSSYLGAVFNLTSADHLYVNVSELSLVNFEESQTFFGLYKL
# protocolDescription: cell-based or functional assay
Quick reference for HepG2 IC50(nM), FasL antigen-induced cell apoptosis among some binders
# output: bare number, implied unit nM

Record excerpt, results attached:
# binder, numericReadout
rows = [
    ("humFL-M88-15 (antibody, human IgG4, V domains shown, Humanized FL-M88) VH: QVQLVQSGAEVKKPGASVKVSCKGSGYTFTDYTIHWVRQAPGQGLEWMGVISTYQGDASYNQKFKGRATMTVDKSTSTAYMELSSLRSEDTAVYYCARFPDWDYAMDYWGQGTLVTVSS VL: EIVMTQSPATLSVSPGERATLSCKASQSVDYDGDSYMNWYQQKPGQPPRLLIYAASNLESGIPARFSGSGSGTEFTLTISSLQSEDFAVYYCQQSRELPYTFGQGTKLEIK", 0.0143),
    ("humFL-M88-7 (antibody, human IgG4, V domains shown, Humanized FL-M88) VH: QVQLVQSGAEVKKPGASVKVSCKGSGYTFTDYTIHWVRQAPGQGLEWIGVISTYQGDASYNQKFKGRATMTVDKSTSTAYMELSSLRSEDTAVYYCARFPDWDYAMDYWGQGTLVTVSS VL: EIVMTQSPATLSVSPGERATLSCKASQSVDYDGDSYMNWYQQKPGQAPRLLIYAASNLESGIPARFSGSGSGTEFTLTISSLQSEDFAVYYCQHSRELPYTFGQGTKLEIK", 0.0274),
    ("humFL-M88-1 (antibody, human IgG4, V domains shown, Humanized FL-M88) VH: QVQLVQSGAEVKKPGASVKVSCKGSGYTFTDYTIHWVRQAPGQGLEWIGVISTYQGDASYNQKFKGRATMTVDKSTSTAYMELSSLRSEDTAVYYCARFPDWDYAMDYWGQGTLVTVSS VL: EIVMTQSPATLSVSPGERATLSCKASQSVDYDGDSYMNWYQQKPGQPPRLLIYAASNLESGIPARFSGSGSGTEFTLTISSLQSEDFAVYYCQHSRELPYTFGQGTKLEIK", 0.0125),
]

Entry humFL-M88-3 (antibody, human IgG4, V domains shown, Humanized FL-M88) VH: QVQLVQSGAEVKKPGASVKVSCKGSGYTFTDYTIHWVRQAPGQGLEWMGVISTYQGDASYNQKFKGRATMTVDKSTSTAYMELSSLRSEDTAVYYCARFPDWDYAMDYWGQGTLVTVSS VL: EIVMTQSPATLSVSPGERATLSCKASQSVDYDGDSYMNWYQQKPGQPPRLLIYAASNLESGIPARFSGSGSGTEFTLTISSLQSEDFAVYYCQHSRELPYTFGQGTKLEIK ; HepG2 IC50(nM), FasL antigen-induced cell apoptosis = 0.0276
